# test system: T1, FcγRIIB (form not stated) (UniProt P31994 43-217, limits assumed)
# T1 construct: also called FcγRIIB (ELISA)
# T1 sequence (looked up): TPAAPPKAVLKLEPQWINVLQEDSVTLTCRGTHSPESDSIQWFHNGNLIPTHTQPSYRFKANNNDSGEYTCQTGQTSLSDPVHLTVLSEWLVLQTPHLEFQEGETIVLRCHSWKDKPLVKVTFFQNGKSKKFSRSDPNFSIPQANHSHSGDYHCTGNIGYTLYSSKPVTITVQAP
# test method notes: ELISA
measurement type: fold increase vs WT (x)
Give the value, in units of x, as a plain number.

* ch4-4-20 K246N, Q419R, P396L (antibody) heavy: ASTKGPSVFPLAPSSKSTSGGTAALGCLVKDYFPEPVTVSWNSGALTSGVHTFPAVLQSSGLYSLSSVVTVPSSSLGTQTYICNVNHKPSNTKVDKKVEPKSCDKTHTCPPCPAPELLGGPSVFLFPPNPKDTLMISRTPEVTCVVVDVSHEDPEVKFNWYVDGVEVHNAKTKPREEQYNSTYRVVSVLTVLHQDWLNGKEYKCKVSNKALPAPIEKTISKAKGQPREPQVYTLPPSRDELTKNQVSLTCLVKGFYPSDIAVEWESNGQPENNYKTTPLVLDSDGSFFLYSKLTVDKSRWQRGNVFSCSVMHEALHNHYTQKSLSLSPGK | 4.8

Ask: Give me measured fold increase vs WT, please, for this binder: ch4-4-20 K290E, V369A, T393A, P396L (antibody) heavy: ASTKGPSVFPLAPSSKSTSGGTAALGCLVKDYFPEPVTVSWNSGALTSGVHTFPAVLQSSGLYSLSSVVTVPSSSLGTQTYICNVNHKPSNTKVDKKVEPKSCDKTHTCPPCPAPELLGGPSVFLFPPKPKDTLMISRTPEVTCVVVDVSHEDPEVKFNWYVDGVEVHNAKTEPREEQYNSTYRVVSVLTVLHQDWLNGKEYKCKVSNKALPAPIEKTISKAKGQPREPQVYTLPPSRDELTKNQVSLTCLAKGFYPSDIAVEWESNGQPENNYKATPLVLDSDGSFFLYSKLTVDKSRWQQGNVFSCSVMHEALHNHYTQKSLSLSPGK
Reply: 6.7

Values were extracted from patent US20080112961A1.
